- testTarget: YSK4 (Homo sapiens (Human))
- Sequence (Q56UN5 whole entry): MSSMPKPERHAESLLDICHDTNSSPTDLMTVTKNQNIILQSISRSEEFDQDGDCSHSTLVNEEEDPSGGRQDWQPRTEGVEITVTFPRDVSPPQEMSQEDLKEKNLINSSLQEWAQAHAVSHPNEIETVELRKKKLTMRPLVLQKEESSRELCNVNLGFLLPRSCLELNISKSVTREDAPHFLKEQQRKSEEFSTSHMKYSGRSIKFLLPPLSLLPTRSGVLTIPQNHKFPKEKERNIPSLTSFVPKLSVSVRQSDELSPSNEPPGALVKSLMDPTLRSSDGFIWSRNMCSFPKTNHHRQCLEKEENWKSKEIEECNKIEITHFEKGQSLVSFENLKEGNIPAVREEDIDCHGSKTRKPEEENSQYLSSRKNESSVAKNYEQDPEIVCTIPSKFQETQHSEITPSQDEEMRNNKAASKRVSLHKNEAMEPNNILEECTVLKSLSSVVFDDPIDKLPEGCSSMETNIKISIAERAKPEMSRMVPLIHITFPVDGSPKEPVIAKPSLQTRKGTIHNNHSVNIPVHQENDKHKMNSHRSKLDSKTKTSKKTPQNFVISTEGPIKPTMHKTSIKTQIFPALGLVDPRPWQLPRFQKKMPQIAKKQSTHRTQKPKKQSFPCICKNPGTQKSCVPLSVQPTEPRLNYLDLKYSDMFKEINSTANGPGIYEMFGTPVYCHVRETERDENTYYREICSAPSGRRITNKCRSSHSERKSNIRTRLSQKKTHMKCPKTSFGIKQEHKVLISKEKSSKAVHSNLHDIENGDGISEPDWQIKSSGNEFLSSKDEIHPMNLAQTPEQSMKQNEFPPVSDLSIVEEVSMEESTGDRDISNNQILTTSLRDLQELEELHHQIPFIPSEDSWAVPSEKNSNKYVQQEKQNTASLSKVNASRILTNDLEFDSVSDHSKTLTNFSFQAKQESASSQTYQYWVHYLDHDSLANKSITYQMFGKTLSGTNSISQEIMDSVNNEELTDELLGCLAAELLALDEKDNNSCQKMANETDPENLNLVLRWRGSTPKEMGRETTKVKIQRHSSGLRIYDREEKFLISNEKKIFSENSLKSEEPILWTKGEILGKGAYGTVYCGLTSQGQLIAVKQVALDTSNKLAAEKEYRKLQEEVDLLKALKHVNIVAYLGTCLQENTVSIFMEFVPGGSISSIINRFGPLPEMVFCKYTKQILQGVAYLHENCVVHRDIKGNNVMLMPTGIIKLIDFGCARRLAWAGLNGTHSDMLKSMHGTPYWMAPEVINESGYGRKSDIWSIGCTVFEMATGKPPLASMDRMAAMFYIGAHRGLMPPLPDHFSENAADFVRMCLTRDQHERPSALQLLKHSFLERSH
Where a name gives a salt, the structure may show the parent alone.
quantityMeasured: IC50

N#C/N=C(/NCc1ccccc1)Nc1ccc(-c2cn[nH]c2)cc1 [Compound 16, hydrochloride] = > 10000 nM
NCC(C(=O)Nc1ccc(-c2cn[nH]c2)cc1F)c1ccccc1 (stereo not shown) [Compound 19, dihydrochloride] = > 1000 nM
NCC(C(=O)Nc1ccc(-c2cn[nH]c2)cc1)c1ccc(F)cc1 (stereo not shown) [Compound 8, dihydrochloride] = > 1000 nM
NCC(C(=O)Nc1ccc(-c2cn[nH]c2)cc1)c1ccc(C=O)cc1 (stereo not shown) [Compound 13, dihydrochloride] = > 1000 nM
NCC(C(=O)Nc1ccc(-c2cn[nH]c2)cc1)c1ccccc1 (racemic) [Compound 7, dihydrochloride] = > 1000 nM
[N-]=[N+]=NC(CN)C(=O)Nc1ccc(-c2cn[nH]c2)cc1 (stereo not shown) [Compound 1, dihydrochloride] = > 10000 nM
NCC(C(=O)Nc1ccc(-c2cn[nH]c2)cc1)n1cc(-c2ccccc2)nn1 (stereo not shown) [Compound 2, dihydrochloride] = > 10000 nM

Cited source: patent US11608319B2
